biological target: Cannabinoid receptor 2 (Homo sapiens, UniProt P34972); test: Displacement of [3H]CP-55,940 from human recombinant CB2R expressed in HEK-293 cells after 90 mins by liquid scintillation counting
Sequence (P34972 whole entry): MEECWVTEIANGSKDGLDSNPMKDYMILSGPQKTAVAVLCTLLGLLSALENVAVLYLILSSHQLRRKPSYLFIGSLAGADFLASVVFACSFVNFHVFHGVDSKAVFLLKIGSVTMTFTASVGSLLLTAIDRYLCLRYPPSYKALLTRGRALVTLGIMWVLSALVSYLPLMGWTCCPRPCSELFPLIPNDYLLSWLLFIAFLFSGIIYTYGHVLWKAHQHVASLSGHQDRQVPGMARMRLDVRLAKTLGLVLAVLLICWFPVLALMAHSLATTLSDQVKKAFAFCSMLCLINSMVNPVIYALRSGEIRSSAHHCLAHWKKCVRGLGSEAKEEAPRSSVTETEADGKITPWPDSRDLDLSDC
Exam item: assign Y to entries whose Ki is below 4 nM and N to entries at or above 4 nM. Note that a value of exactly 4 nM receives N.

Worked cases, answers included:
COC(=O)CCCCn1c(=O)c(C(=O)NC2CCC(C)CC2)cc2cccnc21 (stereo not given)	N
CC1CCC(NC(=O)c2cc3cccnc3n(CCCCF)c2=O)CC1 (stereo not given)	Y
CCCCCn1c(=O)c(C(=O)NC2CCC(C)CC2)cc2cccnc21 (stereo not given)	Y
CC1CCC(NC(=O)c2cc3cccnc3n(CCC(=O)O)c2=O)CC1 (stereo not given)	N
C[C@H]1CC[C@@H](NC(=O)c2cc3cc(Br)cnc3n(Cc3ccc(F)cc3)c2=O)CC1	Y

Please check: Ki for COc1ccc(-c2cnc3c(c2)cc(C(=O)NC2CCC(C)CC2)c(=O)n3Cc2ccc(F)cc2)cc1 (stereo not given) , strictly under 4 nM or not?
Y

Determine whether this compound shows Ki lower than 4 nM (ties excluded): CC1CCC(NC(=O)c2cc3cccnc3n(CCCO)c2=O)CC1 (stereo not given)
N

For this compound, is Ki lower than 4 nM? CC1CCC(NC(=O)c2cc3cc(-c4ccco4)cnc3n(CCN3CCOCC3)c2=O)CC1 (stereo not given)
Y

Ki under 4 nM? Item: C[C@H]1CC[C@H](NC(=O)c2cc3cc(-c4cccs4)cnc3n(Cc3ccc(F)cc3)c2=O)CC1
N

Is it true that Ki reported for CC1CCC(NC(=O)c2cc3cc(-c4ccc(F)cc4)cnc3n(CCN3CCOCC3)c2=O)CC1 (stereo not given) is less than 4 nM?
Y

Please determine if CC1CCC(NC(=O)c2cc3cc(-c4cccs4)cnc3n(Cc3ccc(F)cc3)c2=O)CC1 (stereo not given) is below 4 nM in terms of Ki.
Y

Just wondering, is Ki of CC1CCC(NC(=O)c2cc3cc(Br)cnc3n(CCN3CCOCC3)c2=O)CC1 (stereo not given) below 4 nM?
Y

Bench note: check whether CC1CCC(NC(=O)c2cc3cccnc3n(CCCCC(=O)O)c2=O)CC1 (stereo not given) shows Ki below 4 nM
N

Item CC1CCC(NC(=O)c2cc3cccnc3n(CCCC(=O)O)c2=O)CC1 (stereo not given) : Ki beneath 4 nM, strictly?
N

Identify whether the compound CC1CCC(NC(=O)c2cc3cccnc3n(CCCCO)c2=O)CC1 (stereo not given) records Ki below 4 nM.
N

====

molecular target: Cannabinoid receptor 2 (Homo sapiens, UniProt P34972); assay: Antagonist activity at human recombinant CB2R expressed in WIN-55212-stimulated U2OS cells assessed as increase in forskolin-mediated cAMP level after 30 mins by time-resolved fluorescence assay; type: functional, cell-based; conditions: read-out: IC50
Quantity measured: IC50 (nM)
Expressed in nM, but write only the number.

Endpoint output: IC50 of CC1CCC(NC(=O)c2cc3cc(Br)cnc3n(CCN3CCOCC3)c2=O)CC1 (stereo unspecified) . Value?
59.6

====

target: UniProt P21554; assay: Displacement of [3H]CP-55,940 from human recombinant CB1R expressed in HEK-293 cells after 90 mins by liquid scintillation counting
Sequence (P21554 whole entry): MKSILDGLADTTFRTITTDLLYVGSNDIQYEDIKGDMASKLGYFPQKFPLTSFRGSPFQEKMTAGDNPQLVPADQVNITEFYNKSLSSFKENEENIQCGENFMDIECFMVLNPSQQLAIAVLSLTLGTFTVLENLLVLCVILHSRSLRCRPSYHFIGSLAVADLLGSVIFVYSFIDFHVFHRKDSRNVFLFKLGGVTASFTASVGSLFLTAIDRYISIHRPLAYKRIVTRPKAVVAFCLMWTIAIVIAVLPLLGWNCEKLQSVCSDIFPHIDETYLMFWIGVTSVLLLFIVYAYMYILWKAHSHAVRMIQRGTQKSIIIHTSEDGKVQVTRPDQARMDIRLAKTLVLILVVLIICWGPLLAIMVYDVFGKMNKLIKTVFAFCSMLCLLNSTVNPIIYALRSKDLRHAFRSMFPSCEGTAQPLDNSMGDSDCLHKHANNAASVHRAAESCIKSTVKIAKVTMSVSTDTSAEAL
Attribute: log10 Ki
Scale: decimal log of Ki, Ki in µM.

Examples with their reported log10 Ki follow.
CCCCCn1c(=O)c(C(=O)NC2CCC(C)CC2)cc2cccnc21 (stereo not given)	-0.04
CCCCn1c(=O)c(C(=O)NC2CCC(C)CC2)cc2cccnc21 (stereo not given)	0.36
CC1CCC(NC(=O)c2cc3cccnc3n(CCCCCCF)c2=O)CC1 (stereo not given)	-1.45

What log10 Ki value was documented for this molecule, C[C@H]1CC[C@H](NC(=O)c2cc3cc(Br)cnc3n(Cc3ccc(F)cc3)c2=O)CC1 ?
-0.78

Entry CC1CCC(NC(=O)c2cc3cc(-c4cccs4)cnc3n(Cc3ccc(F)cc3)c2=O)CC1 (stereo not given) : reported log10 Ki = ?
0.52

Bench note: what log10 Ki did CC1CCC(NC(=O)c2cc3cc(-c4ccco4)cnc3n(Cc3ccc(F)cc3)c2=O)CC1 (stereo not given) show?
0.54

Dear colleague, I am looking for the recorded log10 Ki of the following molecule: C[C@H]1CC[C@@H](NC(=O)c2cc3cc(Br)cnc3n(Cc3ccc(F)cc3)c2=O)CC1
-0.92
